Measured kinase still bound, per cent of control of individual entries
System Under Test: CAMK2B (human)
Protocol: KINOMEscan competition binding
Stated Conditions: compound 1.0 µM
Observable: kinase still bound, per cent of control (%)

CN(C)C/C=C/C(=O)Nc1cccc(C(=O)Nc2ccc(Nc3nccc(-c4cccnc4)n3)cc2)c1
82
CN(C)C/C=C/C(=O)Nc1cccc(C(=O)Nc2ccc(Nc3nccc(-c4c(-c5ccccc5)nn5ccccc45)n3)cc2)c1
100
Cc1cc(NC(=O)c2cccc(NC(=O)/C=C/CN(C)C)c2)ccc1Nc1nccc(-c2cccnc2)n1
100
CN(C)C/C=C/C(=O)Nc1cccc(C(=O)Nc2ccc(Nc3nccc(/C(C#N)=C4\Nc5ccccc5S4)n3)cc2)c1
100

---

Measured kinase still bound, per cent of control of individual entries
System Under Test: BMX (human) (UniProt P51813)
Sequence (P51813 whole entry, looked up): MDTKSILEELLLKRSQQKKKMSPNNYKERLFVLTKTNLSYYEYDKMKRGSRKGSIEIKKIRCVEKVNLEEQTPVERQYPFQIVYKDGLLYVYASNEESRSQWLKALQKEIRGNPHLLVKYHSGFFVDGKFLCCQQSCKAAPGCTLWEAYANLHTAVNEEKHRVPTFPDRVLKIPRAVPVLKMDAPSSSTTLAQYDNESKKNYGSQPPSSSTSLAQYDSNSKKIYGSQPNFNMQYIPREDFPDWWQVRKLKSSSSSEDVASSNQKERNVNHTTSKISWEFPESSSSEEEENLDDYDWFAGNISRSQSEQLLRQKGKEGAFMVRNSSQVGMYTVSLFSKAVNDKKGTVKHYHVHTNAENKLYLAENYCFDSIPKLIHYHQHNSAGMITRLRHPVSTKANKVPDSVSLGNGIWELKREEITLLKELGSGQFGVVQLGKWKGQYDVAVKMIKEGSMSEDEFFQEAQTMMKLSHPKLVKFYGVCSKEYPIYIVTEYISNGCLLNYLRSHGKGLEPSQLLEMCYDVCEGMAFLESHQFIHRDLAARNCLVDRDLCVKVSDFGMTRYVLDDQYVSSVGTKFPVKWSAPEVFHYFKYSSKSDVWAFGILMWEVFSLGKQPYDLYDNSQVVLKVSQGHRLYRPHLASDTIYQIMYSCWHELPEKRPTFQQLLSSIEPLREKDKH
Protocol: KINOMEscan competition binding
Stated Conditions: compound 1.0 µM
Observable: kinase still bound, per cent of control (%)

CN(C)C/C=C/C(=O)Nc1cccc(C(=O)Nc2ccc(Nc3nccc(/C(C#N)=C4\Nc5ccccc5S4)n3)cc2)c1
88
CN(C)C/C=C/C(=O)Nc1cccc(C(=O)Nc2ccc(Nc3nccc(-c4cccnc4)n3)cc2)c1
70
CN(C)C/C=C/C(=O)Nc1cccc(C(=O)Nc2ccc(Nc3nccc(-c4c(-c5ccccc5)nn5ccccc45)n3)cc2)c1
76
Cc1cc(NC(=O)c2cccc(NC(=O)/C=C/CN(C)C)c2)ccc1Nc1nccc(-c2cccnc2)n1
100

---

System Under Test: TGFBR1 (human) (UniProt P36897)
Sequence (P36897 whole entry, looked up): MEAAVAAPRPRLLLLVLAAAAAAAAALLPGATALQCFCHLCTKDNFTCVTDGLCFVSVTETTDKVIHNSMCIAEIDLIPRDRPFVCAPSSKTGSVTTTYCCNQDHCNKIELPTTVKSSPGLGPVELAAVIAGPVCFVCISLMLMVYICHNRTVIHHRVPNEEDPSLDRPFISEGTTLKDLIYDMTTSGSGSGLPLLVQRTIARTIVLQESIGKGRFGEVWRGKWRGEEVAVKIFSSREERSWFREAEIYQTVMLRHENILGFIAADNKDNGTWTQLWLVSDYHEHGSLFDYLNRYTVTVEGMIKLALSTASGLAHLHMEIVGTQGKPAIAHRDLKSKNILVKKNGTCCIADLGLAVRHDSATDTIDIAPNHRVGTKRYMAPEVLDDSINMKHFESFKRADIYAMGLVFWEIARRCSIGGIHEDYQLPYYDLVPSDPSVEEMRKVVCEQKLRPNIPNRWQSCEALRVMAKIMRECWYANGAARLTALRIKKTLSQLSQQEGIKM
Protocol: KINOMEscan competition binding
Stated Conditions: compound 1.0 µM
Measured kinase still bound, per cent of control of individual entries
Observable: kinase still bound, per cent of control (%)

CN(C)C/C=C/C(=O)Nc1cccc(C(=O)Nc2ccc(Nc3nccc(-c4c(-c5ccccc5)nn5ccccc45)n3)cc2)c1
12
CN(C)C/C=C/C(=O)Nc1cccc(C(=O)Nc2ccc(Nc3nccc(-c4cccnc4)n3)cc2)c1
86
Cc1cc(NC(=O)c2cccc(NC(=O)/C=C/CN(C)C)c2)ccc1Nc1nccc(-c2cccnc2)n1
89
CN(C)C/C=C/C(=O)Nc1cccc(C(=O)Nc2ccc(Nc3nccc(/C(C#N)=C4\Nc5ccccc5S4)n3)cc2)c1
97

---

Measured kinase still bound, per cent of control of individual entries
System Under Test: CDK17 (human)
Protocol: KINOMEscan competition binding
Stated Conditions: compound 1.0 µM
Observable: kinase still bound, per cent of control (%)

CN(C)C/C=C/C(=O)Nc1cccc(C(=O)Nc2ccc(Nc3nccc(-c4c(-c5ccccc5)nn5ccccc45)n3)cc2)c1
100
CN(C)C/C=C/C(=O)Nc1cccc(C(=O)Nc2ccc(Nc3nccc(/C(C#N)=C4\Nc5ccccc5S4)n3)cc2)c1
100
CN(C)C/C=C/C(=O)Nc1cccc(C(=O)Nc2ccc(Nc3nccc(-c4cccnc4)n3)cc2)c1
84
Cc1cc(NC(=O)c2cccc(NC(=O)/C=C/CN(C)C)c2)ccc1Nc1nccc(-c2cccnc2)n1
100

---

Tested on: EGFR (human), P00533 [L861Q]
Protocol: KINOMEscan competition binding
Stated Conditions: compound 1.0 µM
Measured kinase still bound, per cent of control of individual entries
Observable: kinase still bound, per cent of control (%)

CN(C)C/C=C/C(=O)Nc1cccc(C(=O)Nc2ccc(Nc3nccc(-c4c(-c5ccccc5)nn5ccccc45)n3)cc2)c1
0.75
CN(C)C/C=C/C(=O)Nc1cccc(C(=O)Nc2ccc(Nc3nccc(-c4cccnc4)n3)cc2)c1
84
CN(C)C/C=C/C(=O)Nc1cccc(C(=O)Nc2ccc(Nc3nccc(/C(C#N)=C4\Nc5ccccc5S4)n3)cc2)c1
81
Cc1cc(NC(=O)c2cccc(NC(=O)/C=C/CN(C)C)c2)ccc1Nc1nccc(-c2cccnc2)n1
100

---

Measured kinase still bound, per cent of control of individual entries
System Under Test: MAP3K15 (human)
Protocol: KINOMEscan competition binding
Stated Conditions: compound 1.0 µM
Observable: kinase still bound, per cent of control (%)

CN(C)C/C=C/C(=O)Nc1cccc(C(=O)Nc2ccc(Nc3nccc(/C(C#N)=C4\Nc5ccccc5S4)n3)cc2)c1
100
CN(C)C/C=C/C(=O)Nc1cccc(C(=O)Nc2ccc(Nc3nccc(-c4c(-c5ccccc5)nn5ccccc45)n3)cc2)c1
47
Cc1cc(NC(=O)c2cccc(NC(=O)/C=C/CN(C)C)c2)ccc1Nc1nccc(-c2cccnc2)n1
82
CN(C)C/C=C/C(=O)Nc1cccc(C(=O)Nc2ccc(Nc3nccc(-c4cccnc4)n3)cc2)c1
88

---

System Under Test: TLK1 (human) (UniProt Q9UKI8)
Sequence (Q9UKI8 whole entry, looked up): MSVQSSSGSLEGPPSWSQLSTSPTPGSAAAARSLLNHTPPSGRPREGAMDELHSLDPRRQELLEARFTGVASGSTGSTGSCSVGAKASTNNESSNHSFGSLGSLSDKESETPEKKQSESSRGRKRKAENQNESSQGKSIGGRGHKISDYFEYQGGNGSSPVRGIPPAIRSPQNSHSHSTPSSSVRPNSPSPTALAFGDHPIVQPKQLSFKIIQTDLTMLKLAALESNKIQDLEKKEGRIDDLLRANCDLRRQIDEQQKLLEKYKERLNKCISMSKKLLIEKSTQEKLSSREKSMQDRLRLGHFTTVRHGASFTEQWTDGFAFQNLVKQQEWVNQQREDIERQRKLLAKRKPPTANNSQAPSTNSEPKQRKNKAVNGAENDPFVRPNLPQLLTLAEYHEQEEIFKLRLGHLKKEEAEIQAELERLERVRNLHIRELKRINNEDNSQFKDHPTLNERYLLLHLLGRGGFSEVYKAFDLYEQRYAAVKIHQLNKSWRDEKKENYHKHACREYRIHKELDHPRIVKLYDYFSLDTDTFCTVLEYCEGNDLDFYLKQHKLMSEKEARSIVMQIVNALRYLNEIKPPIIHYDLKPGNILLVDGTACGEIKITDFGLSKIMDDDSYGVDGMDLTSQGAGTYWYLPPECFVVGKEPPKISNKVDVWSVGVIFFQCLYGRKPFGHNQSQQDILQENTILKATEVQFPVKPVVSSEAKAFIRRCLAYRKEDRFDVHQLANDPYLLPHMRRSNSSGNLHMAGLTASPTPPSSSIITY
Protocol: KINOMEscan competition binding
Stated Conditions: compound 1.0 µM
Observable: kinase still bound, per cent of control (%)

CN(C)C/C=C/C(=O)Nc1cccc(C(=O)Nc2ccc(Nc3nccc(/C(C#N)=C4\Nc5ccccc5S4)n3)cc2)c1
100
CN(C)C/C=C/C(=O)Nc1cccc(C(=O)Nc2ccc(Nc3nccc(-c4c(-c5ccccc5)nn5ccccc45)n3)cc2)c1
67
Cc1cc(NC(=O)c2cccc(NC(=O)/C=C/CN(C)C)c2)ccc1Nc1nccc(-c2cccnc2)n1
98
CN(C)C/C=C/C(=O)Nc1cccc(C(=O)Nc2ccc(Nc3nccc(-c4cccnc4)n3)cc2)c1
92

---

Measured kinase still bound, per cent of control of individual entries
Test system: EGFR (human), P00533 [A750P; 747-749 del]
Protocol: KINOMEscan competition binding
Stated Conditions: compound 1.0 µM
Observable: kinase still bound, per cent of control (%)

CN(C)C/C=C/C(=O)Nc1cccc(C(=O)Nc2ccc(Nc3nccc(/C(C#N)=C4\Nc5ccccc5S4)n3)cc2)c1
94
CN(C)C/C=C/C(=O)Nc1cccc(C(=O)Nc2ccc(Nc3nccc(-c4cccnc4)n3)cc2)c1
87
Cc1cc(NC(=O)c2cccc(NC(=O)/C=C/CN(C)C)c2)ccc1Nc1nccc(-c2cccnc2)n1
84
CN(C)C/C=C/C(=O)Nc1cccc(C(=O)Nc2ccc(Nc3nccc(-c4c(-c5ccccc5)nn5ccccc45)n3)cc2)c1
1.6

---

System Under Test: PRKCD (human) (UniProt Q05655)
Sequence (Q05655 whole entry, looked up): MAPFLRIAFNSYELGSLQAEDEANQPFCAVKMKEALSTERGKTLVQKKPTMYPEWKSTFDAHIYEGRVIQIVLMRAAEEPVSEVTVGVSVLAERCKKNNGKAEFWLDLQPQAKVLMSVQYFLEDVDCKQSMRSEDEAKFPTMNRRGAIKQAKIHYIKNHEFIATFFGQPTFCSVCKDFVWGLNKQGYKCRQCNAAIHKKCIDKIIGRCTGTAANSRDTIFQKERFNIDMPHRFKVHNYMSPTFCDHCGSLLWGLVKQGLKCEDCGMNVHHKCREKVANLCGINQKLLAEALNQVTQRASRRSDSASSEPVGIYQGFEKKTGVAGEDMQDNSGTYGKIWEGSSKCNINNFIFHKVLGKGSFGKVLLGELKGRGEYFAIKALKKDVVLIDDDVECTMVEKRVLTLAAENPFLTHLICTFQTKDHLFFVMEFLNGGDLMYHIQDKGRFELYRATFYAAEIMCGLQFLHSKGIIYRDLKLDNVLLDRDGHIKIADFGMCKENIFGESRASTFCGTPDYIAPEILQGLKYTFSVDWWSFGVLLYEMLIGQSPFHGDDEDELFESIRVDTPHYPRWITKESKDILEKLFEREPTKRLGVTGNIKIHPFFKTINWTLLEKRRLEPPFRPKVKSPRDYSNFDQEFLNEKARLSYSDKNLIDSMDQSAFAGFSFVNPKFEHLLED
Protocol: KINOMEscan competition binding
Stated Conditions: compound 1.0 µM
Measured kinase still bound, per cent of control of individual entries
Observable: kinase still bound, per cent of control (%)

CN(C)C/C=C/C(=O)Nc1cccc(C(=O)Nc2ccc(Nc3nccc(-c4cccnc4)n3)cc2)c1
76
Cc1cc(NC(=O)c2cccc(NC(=O)/C=C/CN(C)C)c2)ccc1Nc1nccc(-c2cccnc2)n1
100
CN(C)C/C=C/C(=O)Nc1cccc(C(=O)Nc2ccc(Nc3nccc(-c4c(-c5ccccc5)nn5ccccc45)n3)cc2)c1
100
CN(C)C/C=C/C(=O)Nc1cccc(C(=O)Nc2ccc(Nc3nccc(/C(C#N)=C4\Nc5ccccc5S4)n3)cc2)c1
47

---

Test system: FLT3 (human), P36888 [D835Y]
Protocol: KINOMEscan competition binding
Stated Conditions: compound 1.0 µM
Measured kinase still bound, per cent of control of individual entries
Observable: kinase still bound, per cent of control (%)

Cc1cc(NC(=O)c2cccc(NC(=O)/C=C/CN(C)C)c2)ccc1Nc1nccc(-c2cccnc2)n1
58
CN(C)C/C=C/C(=O)Nc1cccc(C(=O)Nc2ccc(Nc3nccc(-c4cccnc4)n3)cc2)c1
13
CN(C)C/C=C/C(=O)Nc1cccc(C(=O)Nc2ccc(Nc3nccc(/C(C#N)=C4\Nc5ccccc5S4)n3)cc2)c1
73
CN(C)C/C=C/C(=O)Nc1cccc(C(=O)Nc2ccc(Nc3nccc(-c4c(-c5ccccc5)nn5ccccc45)n3)cc2)c1
54

---

System Under Test: MUSK (human)
Protocol: KINOMEscan competition binding
Stated Conditions: compound 1.0 µM
Observable: kinase still bound, per cent of control (%)

CN(C)C/C=C/C(=O)Nc1cccc(C(=O)Nc2ccc(Nc3nccc(/C(C#N)=C4\Nc5ccccc5S4)n3)cc2)c1
70
Cc1cc(NC(=O)c2cccc(NC(=O)/C=C/CN(C)C)c2)ccc1Nc1nccc(-c2cccnc2)n1
100
CN(C)C/C=C/C(=O)Nc1cccc(C(=O)Nc2ccc(Nc3nccc(-c4cccnc4)n3)cc2)c1
94
CN(C)C/C=C/C(=O)Nc1cccc(C(=O)Nc2ccc(Nc3nccc(-c4c(-c5ccccc5)nn5ccccc45)n3)cc2)c1
100

---

System Under Test: DMPK (human)
Protocol: KINOMEscan competition binding
Stated Conditions: compound 1.0 µM
Observable: kinase still bound, per cent of control (%)

CN(C)C/C=C/C(=O)Nc1cccc(C(=O)Nc2ccc(Nc3nccc(-c4cccnc4)n3)cc2)c1
90
CN(C)C/C=C/C(=O)Nc1cccc(C(=O)Nc2ccc(Nc3nccc(-c4c(-c5ccccc5)nn5ccccc45)n3)cc2)c1
59
CN(C)C/C=C/C(=O)Nc1cccc(C(=O)Nc2ccc(Nc3nccc(/C(C#N)=C4\Nc5ccccc5S4)n3)cc2)c1
78
Cc1cc(NC(=O)c2cccc(NC(=O)/C=C/CN(C)C)c2)ccc1Nc1nccc(-c2cccnc2)n1
63

---

Measured kinase still bound, per cent of control of individual entries
System Under Test: FGR (human) (UniProt P09769)
Sequence (P09769 whole entry, looked up): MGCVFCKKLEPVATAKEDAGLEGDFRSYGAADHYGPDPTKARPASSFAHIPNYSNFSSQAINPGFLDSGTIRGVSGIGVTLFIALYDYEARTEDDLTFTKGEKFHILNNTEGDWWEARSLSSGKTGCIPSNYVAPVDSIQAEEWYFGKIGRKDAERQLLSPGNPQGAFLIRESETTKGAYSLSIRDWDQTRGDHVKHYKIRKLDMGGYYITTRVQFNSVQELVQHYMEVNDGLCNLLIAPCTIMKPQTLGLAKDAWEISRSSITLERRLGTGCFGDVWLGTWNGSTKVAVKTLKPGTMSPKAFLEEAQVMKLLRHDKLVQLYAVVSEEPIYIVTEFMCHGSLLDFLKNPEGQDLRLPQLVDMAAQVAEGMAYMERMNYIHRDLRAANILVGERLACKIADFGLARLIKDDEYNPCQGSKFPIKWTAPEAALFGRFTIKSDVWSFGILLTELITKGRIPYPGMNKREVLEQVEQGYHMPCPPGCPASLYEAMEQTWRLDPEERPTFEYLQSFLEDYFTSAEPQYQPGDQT
Protocol: KINOMEscan competition binding
Stated Conditions: compound 1.0 µM
Observable: kinase still bound, per cent of control (%)

Cc1cc(NC(=O)c2cccc(NC(=O)/C=C/CN(C)C)c2)ccc1Nc1nccc(-c2cccnc2)n1
100
CN(C)C/C=C/C(=O)Nc1cccc(C(=O)Nc2ccc(Nc3nccc(-c4cccnc4)n3)cc2)c1
69
CN(C)C/C=C/C(=O)Nc1cccc(C(=O)Nc2ccc(Nc3nccc(-c4c(-c5ccccc5)nn5ccccc45)n3)cc2)c1
10
CN(C)C/C=C/C(=O)Nc1cccc(C(=O)Nc2ccc(Nc3nccc(/C(C#N)=C4\Nc5ccccc5S4)n3)cc2)c1
100
